settings: 308.15 K; 101.33 kPa; Liquid; Capillary tube (Ostwald / Ubbelohde) method
Known log10(viscosity) of a selection of compounds
Recorded viscosity (log10, mPa·s)

Some solved entries appear below for comparison.
C[S+](C)[O-] [dimethyl sulfoxide]
0.20
CN(C)C=O [dimethylformamide]
-0.11
O
-0.14
C1COCCO1
-0.03
OCCO
1.03

As a next step, examine the compound that follows.
Given the compound C1CCOC1 [tetrahydrofuran] , what is its reported log10(viscosity)?
-0.37

----------
conditions: 318.15 K; 101.33 kPa; Liquid; Pycnometric method
measured.quantity: mass density (kg/m3)
Give your result in kg/m3 as a bare value.

Some solved entries appear below for comparison.
CN(C)C=O [dimethylformamide]
931.6
C1COCCO1
1005.6
O
990.3
C[S+](C)[O-] [dimethyl sulfoxide]
1076.7

As a next step, examine the compound that follows.
Given the compound C1CCOC1 [tetrahydrofuran] , what is its reported mass density?
861.4

Data origin, for the record: the NIST ThermoML archive (doi:10.1021/je060113j)
